system: HCT-15
MEASURE: GI50 (µM)
The reply should contain only the number, in µM.

Recorded GI50 for `O=C(Nc1ccccc1)Oc1ccccc1C1CCCCC1` with HCT-15, please?
16.6

Please tell me: GI50 of `Cn1/c(=N\c2ccc(Cl)cc2)sc2ccccc21` , system HCT-15?
8.15

What measured GI50 is associated with `COc1cc2nc(Cl)nc(NS(=O)(=O)c3cc4ccccc4s3)c2cc1OC` on HCT-15?
36.3

Requested read-out GI50, target or system HCT-15, entry `COc1ccc(-c2cs/c(=N\c3ccccc3)n2CCCN(C)C)cc1`
24.8

Enter reported GI50 observed with HCT-15 for `COc1ccc2nc(N/N=C/c3ccc(C)s3)cc(C)c2c1`
7.96

====

tested on: NCI-H23; experiment: NCI tumour cell line growth inhibition, 48 h
Calls of active or inactive are those of the source. Rule as the data show it: active = GI50 up to about 1.1 µM and inactive = higher. Where a SMILES comes first, the peptide text is derived from it. [ ]: non-standard residue; d: D form. The star is where a group is joined. Phe(4-NO2) = N[CH](Cc1ccc([N+](=O)[O-])cc1)C(=O)O; Boc = CC(C)(C)OC(=O)*
MEASURE: GI50

Here are 3 compounds together with their reported answers.
What GI50 appears in the records for this compound with NCI-H23? `Cc1c(Cl)cccc1N1C(=O)C(Cl)=C(Cl)C1=O`
> 100 µM (inactive)

Lookup: GI50 / NCI-H23 / `COc1ccccc1N1CCN(S(=O)(=O)c2ccc(Cl)cc2)C1=N`
60 µM (inactive)

Write down the reported GI50 of CCOC(=O)CCC(NC(=O)C(Cc1ccc([N+](=O)[O-])cc1)NC(=O)OC(C)(C)C)C(=O)NC(CCC(=O)OCC)C(=O)OCC (stereo not given) (Boc-[Phe(4-NO2)]-Glu(OEt)-Glu(OEt)-OEt; configuration not given here) , test system: NCI-H23.
17.9 µM (inactive)

---
Give recorded GI50 with NCI-H23 for the following compound: `Cc1c(C(=O)C/C(=N/NC(=O)c2ccccc2O)C(=O)Nc2ccccc2C(C)C)[n+]([O-])c2ccccc2[n+]1[O-]`
19.4 µM (inactive)

What value of GI50 on NCI-H23 does CC(=O)OCC1OC(Oc2cc(C)c(O)cc2C/C=C(\C)CC/C=C(\C)C[C@@H](C=C(C)C)OC(C)=O)C(O)C(OC(C)=O)C1OC(C)=O (stereo not given in full) have?
23.3 µM (inactive)

Form field: GI50 recorded for `Cc1c(CN2CCOCC2)c(CN2CCOCC2)c(C)n1-c1ccc(Cl)cn1` with NCI-H23 (enter value)
> 100 µM (inactive)

Param readout = GI50; param system = NCI-H23; param query = `O=c1cc(-c2ccccc2F)[nH]c2cc3c(cc12)OCO3` ; response: value
0.35 µM (active)

For NCI-H23, provide GI50 of `N#CC(C#N)=CSc1ccccc1` please.
57.4 µM (inactive)

Lookup: GI50 / NCI-H23 / CC(C)=NOC(=O)OC[C@H]1O[C@@H](n2cnc3c(N)ncnc32)C(O)C1O (stereo not given in full)
> 100 µM (inactive)

Notebook entry, NCI-H23 assay: GI50 of `C/C(=N\O)c1cccc(Nc2c3ccccc3nc3occc23)c1` = ?
4.99 µM (inactive)
